SYSTEM TESTED: immobilized IL-2 (Homo sapiens, UniProt P60568)
Sequence (P60568 21-153): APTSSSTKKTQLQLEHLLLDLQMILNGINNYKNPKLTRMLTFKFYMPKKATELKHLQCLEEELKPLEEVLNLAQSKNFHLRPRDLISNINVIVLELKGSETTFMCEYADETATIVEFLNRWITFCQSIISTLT
OBSERVATION TYPE: pIC50
// returns pIC50 (minus log10 of molar concentration), number only

Give me measured pIC50, please, for this compound: "COCCNC(=O)[C@@H]1CCCN1C(=O)c1cc2ccccc2s1"
3.73
